Data origin, for the record: patent US20250129074A1

- Protocol Details: Pharmacokinetic evaluation in SD rats
- Measurement Setup: both sexes, rat, in vivo, po, i.g., 2.0 mg/kg, read-out: Half-life T½ (converted)

Compound	half-life, h
C[C@H]1CC2(CCN(c3ccc(C(=O)N4CCC5(CC4)CC(N4CCN(c6ccc(N7CCC(=O)NC7=O)cc6)CC4)C5)cc3)CC2)CN1c1ccc(C#N)c(Cl)c1 [Example 28]	7.17
C[C@H]1CC2(CCN(c3ccc(C(=O)N4CCC(CN5CCN(c6cc(NC7CCC(=O)NC7=O)ccc6F)CC5)CC4)cc3)CC2)CN1c1ccc(C#N)c(Cl)c1 (stereo partly shown) [Example 23]	5.93
C[C@H]1CC2(CCN(c3ccc(C(=O)N4CCC(CN5CCN(c6cccc(NC7CCC(=O)NC7=O)c6)CC5)CC4)nc3)CC2)CN1c1ccc(C#N)c(Cl)c1 (stereo partly shown) [Example 12]	5.19
C[C@H]1CC2(CCN(c3ccc(C(=O)N4CCC(CN5CCN(c6cccc(NC7CCC(=O)NC7=O)c6)CC5)CC4)cc3)CC2)CN1c1ccc(C#N)c(Cl)c1 (stereo partly shown) [Example 11]	6.75

###

- Target Of Assay: androgen receptor (AR) (Homo sapiens, UniProt P10275, T878A)
- Construct: host or cells: LNCaP human prostate cancer cells
- Sequence (P10275 1-920 T878A): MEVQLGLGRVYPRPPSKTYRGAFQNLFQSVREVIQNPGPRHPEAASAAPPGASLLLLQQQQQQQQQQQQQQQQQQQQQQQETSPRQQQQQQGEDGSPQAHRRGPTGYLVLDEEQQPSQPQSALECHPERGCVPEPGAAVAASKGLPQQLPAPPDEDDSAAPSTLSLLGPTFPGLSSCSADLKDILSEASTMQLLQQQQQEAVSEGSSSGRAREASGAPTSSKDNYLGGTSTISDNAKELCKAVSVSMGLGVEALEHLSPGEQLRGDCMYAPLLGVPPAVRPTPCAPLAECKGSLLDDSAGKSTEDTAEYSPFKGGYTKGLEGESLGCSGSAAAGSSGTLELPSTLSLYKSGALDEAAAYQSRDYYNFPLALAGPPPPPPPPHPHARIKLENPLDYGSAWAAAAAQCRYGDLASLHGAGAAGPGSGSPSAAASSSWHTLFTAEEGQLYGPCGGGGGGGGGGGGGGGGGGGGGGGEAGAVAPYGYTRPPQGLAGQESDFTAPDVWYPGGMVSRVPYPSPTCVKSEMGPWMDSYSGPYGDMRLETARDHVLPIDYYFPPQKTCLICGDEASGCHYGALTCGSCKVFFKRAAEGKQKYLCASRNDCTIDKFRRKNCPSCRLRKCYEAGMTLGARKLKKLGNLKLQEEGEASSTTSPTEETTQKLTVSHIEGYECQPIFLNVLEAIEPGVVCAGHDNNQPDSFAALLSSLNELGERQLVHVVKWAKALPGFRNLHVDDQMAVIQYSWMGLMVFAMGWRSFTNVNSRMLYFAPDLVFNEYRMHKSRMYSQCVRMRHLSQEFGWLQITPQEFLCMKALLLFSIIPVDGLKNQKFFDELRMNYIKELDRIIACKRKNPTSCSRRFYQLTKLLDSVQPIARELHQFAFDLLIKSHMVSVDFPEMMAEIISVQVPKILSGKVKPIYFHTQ
- Protocol Details: Degradation activity on androgen receptor in LNCaP cells (AR ELISA)
- Assay type: cell-based
- Measurement Setup: 0.1 nM R1881, 24 hours, read-out: Max (maximum AR degradation rate)
Readout Type: Dmax (%)

Molecule	Result Number
C[C@H]1CC2(CCN(c3ccc(C(=O)N4CC(CN5CCN(c6cccc(NC7CCC(=O)NC7=O)c6)CC5)C4)cc3)CC2)CN1c1ccc(C#N)c(Cl)c1 (some centres unmarked)	96
C[C@H]1CC2(CCN(c3ccc(C(=O)N4CCC5(CC4)CC(N4CCN(c6ccc(N7CCC(=O)NC7=O)cc6)CC4)C5)nc3)CC2)CN1c1ccc(C#N)c(Cl)c1	95
C[C@H]1CC2(CCN(c3ccc(C(=O)N4CCC(N5CCN(c6ccc(C(=O)NC7CCC(=O)NC7=O)c(F)c6)CC5)CC4)cc3)CC2)CN1c1ccc(C#N)c(Cl)c1 (some centres unmarked)	89
Cc1c(N2CCC3(CCN(c4ccc(C(=O)N5CCC(CN6CCN(c7cccc(NC8CCC(=O)NC8=O)c7)CC6)CC5)cc4)CC3)C2)ccc(C#N)c1Cl (racemic)	96
C[C@H]1CC2(CCN(c3ccc(C(=O)N4CCC5(CC4)CC(N4CCN(c6ccc(N7CCC(=O)NC7=O)cc6)CC4)C5)c(F)c3)CC2)CN1c1ccc(C#N)c(Cl)c1	94
C[C@H]1CC2(CCN(c3ccc(C(=O)N4CCN(CC5CCN(c6cccc(NC7CCC(=O)NC7=O)c6)CC5)CC4)cc3)CC2)CN1c1ccc(C#N)c(Cl)c1 (some centres unmarked)	97
C[C@H]1CC2(CCN(c3ccc(C(=O)N4CCC(CN5CCC(c6ccc(NC7CCC(=O)NC7=O)cc6)CC5)CC4)cc3)CC2)CN1c1ccc(C#N)c(Cl)c1 (some centres unmarked)	94
C[C@H]1CC2(CCN(c3ccc(C(=O)N4CCC(CN5CC(N6CCN(c7ccc(N8CCC(=O)NC8=O)cc7)CC6)C5)CC4)cc3)CC2)CN1c1ccc(C#N)c(Cl)c1	85
C[C@H]1CC2(CCN(c3ccc(C(=O)N4CCC(CN5CCN(c6ccc(NC7CCC(=O)NC7=O)cc6)CC5)CC4)cc3)CC2)CN1c1ccc(C#N)c(Cl)c1 (some centres unmarked)	96
C[C@H]1CC2(CCN(c3ccc(C(=O)N4CCC5(CC4)CC(N4CCN(c6ccc(N7CCC(=O)NC7=O)cc6)CC4)C5)cc3F)CC2)CN1c1ccc(C#N)c(Cl)c1	96
C[C@H]1CC2(CCN(C(=O)c3ccc(SC4CCN(C5CN(c6ccc(C(=O)NC7CCC(=O)NC7=O)c(F)c6)C5)CC4)nc3)CC2)CN1c1ccc(C#N)c(Cl)c1 (some centres unmarked)	86
